// provenance: ChEMBL document CHEMBL1149375

- Test system: SARS-CoV
- PROTOCOL_NOTES: Inhibitory activity against SARS coronavirus FFMI replication in Caco-2 cells
- Assay type: functional, organism-based
- EXPERIMENTAL_PARAMETERS: Severe acute respiratory syndrome-related coronavirus
Square brackets hold non-standard residues; d marks the D form. Peptide text beside a SMILES is read from it. * marks the point of attachment. ξ: configuration not given here. ξE = NC(CCC(=O)O)C(=O)O; Cbz = O=C(OCc1ccccc1)*; CH2F = FC*
Field: EC50. Provide a value for each of the compounds that follow.

Reported EC50 ( CN(C)C(=O)CCC(NC(=O)CNC(=O)OCc1ccccc1)C(=O)CF (stereo not drawn) (Cbz-Gly-[ξE](NMe2)-CH2F) ) = > 100 µM

Reported EC50 ( C[C@H](NC(=O)OCc1ccccc1)C(=O)NC(CCC(=O)N(C)C)C(=O)CF (stereo partly drawn) (Cbz-Ala-[ξE](NMe2)-CH2F) ) = > 100 µM

Reported EC50 ( CC(C)[C@H](NC(=O)OCc1ccccc1)C(=O)NC(CC(=O)O)C(=O)CF (stereo partly drawn) ) = > 100 µM
